Test system: NCI-H211 complex spheroid viability
test.protocol: Anticancer human tumor NCI-H211 cell line growth inhibition [LSD1];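 also: luminescent viability read after seven days of drug exposure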;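 as to viability, T/C: 100% = DMSO vehicle control viability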
test.conditions: second compound 0.316 µM; first compound 0.00949 µM; stronger effect = lower value
Excerpt: Multicellular complex tumor spheroid response to LSD1 Inhibitor Iadademstat in combination with a variety of drugs and investigational agents in selected tumor cell lines The current study was undertaken to assess response to LSD1 inhibitors in combination with standard-of-care drugs and investigational agents in solid tumor complex spheroid models as well as in the K-562 leukemia. […] Compounds. […] If the clinical Cmax for an agent had not been determined, the highest concentration tested was 10 microM. […]
measured.metric: viability, T/C (%)
Enter your answer as a number in %; do not include the unit.

compound	measured.metric	output.unit	experimental.result
O=C(C=Cc1cccc(S(=O)(=O)Nc2ccccc2)c1)NO + NC1CCC(NC2CC2c2ccccc2)CC1	viability, T/C	%	18.4

Exercise: Recorded viability, T/C of Nc1ccn(C2OC(CO)C(O)C2(F)F)c(=O)n1 (centres undefined) + NC1CC1c1ccc(-c2cccc(O)c2)cc1 , please.
Solution: 4.15

Exercise: Item CCN(c1cc(-c2ccc(CN3CCOCC3)cc2)cc(C(=O)NCc2c(C)cc(C)[nH]c2=O)c1C)C1CCOCC1 + NC1CCC(NC2CC2c2ccccc2)CC1 has what recorded viability, T/C?
Solution: 66.3

Exercise: Given the entry COc1cc(C2c3cc4c(cc3C(OC3OC5COC(C)OC5C(O)C3O)C3COC(=O)C23)OCO4)cc(OC)c1O (centres undefined) + NC1CC1c1ccc(-c2cccc(O)c2)cc1 , report its measured viability, T/C.
Solution: 38.7

* * *

Test system: NCI-H211 complex spheroid viability
test.protocol: Anticancer human tumor NCI-H211 cell line growth inhibition [LSD1];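 also: luminescent viability read after seven days of drug exposure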
test.conditions: curve of first compound; second compound 1 µM
measured.metric: IC50 (nM)
Write the value in nM as a bare number.

compound	study.target	output.unit	experimental.result
CC[C@@]1(O)C(=O)OCc2c1cc1n(c2=O)Cc2cc3c(CN(C)C)c(O)ccc3nc2-1 + NC1CCC(NC2CC2c2ccccc2)CC1	NCI-H211 complex spheroid viability	nM	0.329
CC[C@@]1(O)C(=O)OCc2c1cc1n(c2=O)Cc2cc3c(CN(C)C)c(O)ccc3nc2-1 + NC1CC1c1ccc(-c2cccc(O)c2)cc1	NCI-H211 complex spheroid viability	nM	0.333

Exercise: Request body: readout IC50, system NCI-H211 complex spheroid viability, query CC1COCCN1c1cc(C2(S(C)(=N)=O)CC2)nc(-c2ccnc3[nH]ccc23)n1 (centres undefined) + NC1CCC(NC2CC2c2ccccc2)CC1 . Return the value.
Solution: 297

Exercise: I'm curious: which IC50 was measured for CC1COCCN1c1cc(C2(S(C)(=N)=O)CC2)nc(-c2ccnc3[nH]ccc23)n1 (centres undefined) + NC1CC1c1ccc(-c2cccc(O)c2)cc1 tested on NCI-H211 complex spheroid viability?
Solution: 381

* * *

Test system: NCI-H211 complex spheroid viability
test.protocol: Anticancer human tumor NCI-H211 cell line growth inhibition [LSD1]; active means viability on the fitted dose curve at most 10% of control; inactive means the rest;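 also: luminescent viability read after seven days of drug exposure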
test.conditions: second compound 1 µM; first compound 1 µM
Excerpt: Multicellular complex tumor spheroid response to LSD1 Inhibitor Iadademstat in combination with a variety of drugs and investigational agents in selected tumor cell lines The current study was undertaken to assess response to LSD1 inhibitors in combination with standard-of-care drugs and investigational agents in solid tumor complex spheroid models as well as in the K-562 leukemia. […] Compounds. […] If the clinical Cmax for an agent had not been determined, the highest concentration tested was 10 microM. […]
Would you mind answering with one of these outcomes? active, inactive

Field: example entries. Status: answers known.
compound	study.target	assigned.label
O=C(c1cc(Cc2n[nH]c(=O)c3ccccc23)ccc1F)N1CCN(C(=O)C2CC2)CC1 + NC1CC1c1ccc(-c2cccc(O)c2)cc1	NCI-H211 complex spheroid viability	active
CC1(C)CCC(CN2CCN(c3ccc(C(=O)NS(=O)(=O)c4ccc(NCC5CCOCC5)c([N+](=O)[O-])c4)c(Oc4cnc5[nH]ccc5c4)c3)CC2)=C(c2ccc(Cl)cc2)C1 + NC1CC1c1ccc(-c2cccc(O)c2)cc1	NCI-H211 complex spheroid viability	inactive
CC1COCCN1c1cc(-c2ccnn2C)c2ccnc(-c3ccn[nH]3)c2n1 (centres undefined) + NC1CCC(NC2CC2c2ccccc2)CC1	NCI-H211 complex spheroid viability	active

Exercise: Status in this test for CC1(C)CCC(CN2CCN(c3ccc(C(=O)NS(=O)(=O)c4ccc(NCC5CCOCC5)c([N+](=O)[O-])c4)c(Oc4cnc5[nH]ccc5c4)c3)CC2)=C(c2ccc(Cl)cc2)C1 + NC1CCC(NC2CC2c2ccccc2)CC1 ?
Solution: inactive

Exercise: Any idea what this test logged for Nc1ncn(C2CC(O)C(CO)O2)c(=O)n1 (centres undefined) + NC1CC1c1ccc(-c2cccc(O)c2)cc1 ?
Solution: active

* * *

Tested on: NCI-H211 complex spheroid viability
test.protocol: Anticancer human tumor NCI-H211 cell line growth inhibition [LSD1];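 also: luminescent viability read after seven days of drug exposure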;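 as to viability, T/C: 100% = DMSO vehicle control viability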
test.conditions: second compound 1 µM; first compound 0.3 µM; stronger effect = lower value
measured.metric: viability, T/C (%)
Numeric answer only, unit % assumed.

Before answering, review these 3 worked examples.
> print(dat)
                                   compound  output.unit  experimental.result
1  Nc1ccn(C2OC(CO)C(O)C2(F)F)c(=O)n1 (centres undefined) + NC1CCC(NC2CC2c2ccccc2)CC1            %                 2.46
2  CCN(c1cc(-c2ccc(CN3CCOCC3)cc2)cc(C(=O)NCc2c(C)cc(C)[nH]c2=O)c1C)C1CCOCC1 + NC1CCC(NC2CC2c2ccccc2)CC1            %                 63.7
3  COc1cc(C2c3cc4c(cc3C(OC3OC5COC(C)OC5C(O)C3O)C3COC(=O)C23)OCO4)cc(OC)c1O (centres undefined) + NC1CCC(NC2CC2c2ccccc2)CC1            %                 2.36

Now look at this one.
Exercise: Provide the documented viability, T/C with NCI-H211 complex spheroid viability as the system for Nc1ccn(C2OC(CO)C(O)C2(F)F)c(=O)n1 (centres undefined) + NC1CC1c1ccc(-c2cccc(O)c2)cc1
Solution: 4.53

* * *

System: NCI-H211 complex spheroid viability
test.protocol: Anticancer human tumor NCI-H211 cell line growth inhibition [LSD1];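 also: luminescent viability read after seven days of drug exposure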;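 as to viability, T/C: 100% = DMSO vehicle control viability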
test.conditions: second compound 3.16 µM; first compound 0.3 µM; stronger effect = lower value
Field 'label' (enum: 1 (yes) / 0 (no)). Set to 1 (yes) when viability, T/C is strictly under 4%; else 0 (no).

The following molecules have reported results that may help.
molecule	study.target	assigned.label
CCc1c2c(nc3ccc(O)cc13)-c1cc3c(c(=O)n1C2)COC(=O)[C@]3(O)CC + NC1CCC(NC2CC2c2ccccc2)CC1	NCI-H211 complex spheroid viability	1 (yes)
Nc1ncn(C2CC(O)C(CO)S2)c(=O)n1 (configuration not stated) + NC1CCC(NC2CC2c2ccccc2)CC1	NCI-H211 complex spheroid viability	1 (yes)

Lab note: next molecule to report on.
Exercise: Is it true that viability, T/C reported for NS(=O)(=O)OCC1CC(n2ccc3c(NC4CCc5ccccc54)ncnc32)CC1O (configuration not stated) + NC1CC1c1ccc(-c2cccc(O)c2)cc1 is less than 4%?
Solution: 1 (yes)

* * *

System: NCI-H211 complex spheroid viability
test.protocol: Anticancer human tumor NCI-H211 cell line growth inhibition [LSD1];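 also: luminescent viability read after seven days of drug exposure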;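 as to viability, T/C: 100% = DMSO vehicle control viability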
test.conditions: second compound 0.1 µM; first compound 0.01 µM; stronger effect = lower value
measured.metric: viability, T/C (%)
Your answer is read as %, so omit the unit and give the number.

Study these solved cases before continuing.
> print(dat)
                                   compound                         study.target  experimental.result
1  O=C(C=Cn1cnc(-c2cc(C(F)(F)F)cc(C(F)(F)F)c2)n1)NNc1cnccn1 + NC1CCC(NC2CC2c2ccccc2)CC1  NCI-H211 complex spheroid viability                 20.6
2  CC(C)CC(NC(=O)CNC(=O)c1cc(Cl)ccc1Cl)B1OC(=O)CC(CC(=O)O)(C(=O)O)O1 (stereo unspecified) + NC1CC1c1ccc(-c2cccc(O)c2)cc1  NCI-H211 complex spheroid viability                 61.9

Exercise: Can you look up the measured viability, T/C of Cn1ncnc1C1c2n[nH]c(=O)c3cc(F)cc(c23)NC1c1ccc(F)cc1 (stereo unspecified) + NC1CC1c1ccc(-c2cccc(O)c2)cc1 for me?
Solution: 6.78

Exercise: Need viability, T/C, item Nc1ncn(C2CC(O)C(CO)O2)c(=O)n1 (stereo unspecified) + NC1CCC(NC2CC2c2ccccc2)CC1
Solution: 17.8

Exercise: Tell me the measured viability, T/C of CC1COCCN1c1cc(-c2ccnn2C)c2ccnc(-c3ccn[nH]3)c2n1 (stereo unspecified) + NC1CC1c1ccc(-c2cccc(O)c2)cc1 , please.
Solution: 16.8

Exercise: For the compound Cn1ncnc1C1c2n[nH]c(=O)c3cc(F)cc(c23)NC1c1ccc(F)cc1 (stereo unspecified) + NC1CCC(NC2CC2c2ccccc2)CC1 , what viability, T/C is on record?
Solution: 4.59

Exercise: Look at this compound and give its reported viability, T/C. CC(C)CC(NC(=O)C(Cc1ccccc1)NC(=O)c1cnccn1)B(O)O (stereo unspecified) + NC1CC1c1ccc(-c2cccc(O)c2)cc1
Solution: 1.17

Exercise: Can you look up the measured viability, T/C of O=C(C=Cn1cnc(-c2cc(C(F)(F)F)cc(C(F)(F)F)c2)n1)NNc1cnccn1 + NC1CC1c1ccc(-c2cccc(O)c2)cc1 for me?
Solution: 35.5

Exercise: Entry under review: COc1cc(Nc2ncc3c(n2)-c2ccc(Cl)cc2C(c2c(F)cccc2OC)=NC3)ccc1C(=O)O + NC1CC1c1ccc(-c2cccc(O)c2)cc1 . Reported viability, T/C?
Solution: 5.72

Exercise: # lookup: viability, T/C of CC(C)CC(NC(=O)CNC(=O)c1cc(Cl)ccc1Cl)B1OC(=O)CC(CC(=O)O)(C(=O)O)O1 (stereo unspecified) + NC1CCC(NC2CC2c2ccccc2)CC1
Solution: 65.1

Exercise: Can you share its viability, T/C? I mean this compound: CC[C@@]1(O)C(=O)OCc2c1cc1n(c2=O)Cc2cc3c(CN(C)C)c(O)ccc3nc2-1 + NC1CC1c1ccc(-c2cccc(O)c2)cc1
Solution: 4.95

Exercise: Name the reported viability, T/C value associated with the compound Nc1ncn(C2CC(O)C(CO)O2)c(=O)n1 (stereo unspecified) + NC1CC1c1ccc(-c2cccc(O)c2)cc1
Solution: 11.9

Exercise: I am curious: what viability, T/C value has been reported for CC(C)CC(NC(=O)C(Cc1ccccc1)NC(=O)c1cnccn1)B(O)O (stereo unspecified) + NC1CCC(NC2CC2c2ccccc2)CC1 ?
Solution: 2.16

Exercise: Any idea what viability, T/C was measured for CC1COCCN1c1cc(-c2ccnn2C)c2ccnc(-c3ccn[nH]3)c2n1 (stereo unspecified) + NC1CCC(NC2CC2c2ccccc2)CC1 ?
Solution: 15.9

Exercise: Entry CC[C@@]1(O)C(=O)OCc2c1cc1n(c2=O)Cc2cc3c(CN(C)C)c(O)ccc3nc2-1 + NC1CCC(NC2CC2c2ccccc2)CC1 has what viability, T/C?
Solution: 7.01

Exercise: Requested read-out: viability, T/C. Entry: COc1cc(Nc2ncc3c(n2)-c2ccc(Cl)cc2C(c2c(F)cccc2OC)=NC3)ccc1C(=O)O + NC1CCC(NC2CC2c2ccccc2)CC1
Solution: 8.09
